# MEASUREMENT DESCRIPTION: compound fluorescence in GFP channel, mTEFS cells – imaging, mTEFS fibroblasts, cherry-pick, artefact control for X-chromosome reactivation project, dose response (AID 743396)
# CONDITION SUMMARY: mTEFS fibroblasts autofluorescence, GFP-channel imaging, 3 days; at 19.5 µM (top of the series); cells pretreated with 5-aza-dC
Answer False if % fluorescent cells increase is under 0.007%, and True if it is 0.007% or more.

[[record]]
compound = "CCOc1ccccc1N1C(=O)CC(Sc2nccc(C)n2)C1=O (centres undefined)"
label_value = "False"

[[record]]
compound = "O=C(NCCOc1ccccc1)c1cc([N+](=O)[O-])ccc1N1CCOCC1"
label_value = "True"

[[record]]
compound = "Cc1cccc(CS(=O)(=O)Cc2ccc(C(=O)NCc3cccs3)o2)c1"
label_value = "True"

[[record]]
compound = "COc1ccc2c(c1)C(C)=CC(C)(C)N2S(=O)(=O)c1ccc(Br)cc1"
label_value = "False"

[[record]]
compound = "O=C(COC(=O)/C=C/c1cccc(C(F)(F)F)c1)NC(=O)NCc1ccco1"
label_value = "True"

[[record]]
compound = "CCOC(=O)c1ccccc1NC(=O)COC(=O)C1CCN(S(=O)(=O)c2ccccc2C(=O)OC)CC1"
label_value = "False"

[[record]]
compound = "Cc1ccc(S(=O)(=O)Nc2ccc3c(c2)C(=O)N([C@H](C)CO)C[C@@H](C)[C@@H](CN(C)Cc2ccc(Cl)c(Cl)c2)OCCCC[C@H](C)O3)cc1"
label_value = "True"

[[record]]
compound = "NC(=O)c1sc2nc3c(cc2c1N)CCCCCC3"
label_value = "True"

